attributeMeasured: melting point

Recorded results for 4 compounds are shown here.
- compound: "COC1CCC(C(=O)c2sc(NC(=O)c3ccncc3)nc2-c2ccco2)CC1 (centres unmarked) [Compound 347]"
  melting point: "180 to 187 °C"
- compound: "Cn1cc(C(=O)c2sc(NC(=O)c3ccncc3)nc2-c2ccco2)ccc1=O [Compound 267]"
  melting point: "294 to 295 °C"
- compound: "O=C(Nc1nc(-c2ccco2)c(C(=O)C2CCOCC2)s1)C1CCOC1 (centres unmarked) [Compound 429]"
  melting point: "164 to 166 °C"
- compound: "O=C(Nc1nc(-c2ccco2)c(C(=O)c2ccncc2)s1)c1ccncc1 [Compound 236]"
  melting point: "276 to 285 °C"

Returns the measured melting point for the input compound. Input: CC(=O)c1cccc(C(=O)Nc2nc(-c3ccco3)c(C(=O)c3ccccn3)s2)c1 [Compound 115]
168 to 169 °C

* * *

Recorded melting point by entry

Recorded results for 5 molecules are shown here.
- mol: "C[C@@H]1CN(CC(=O)Nc2nc(-c3ccco3)c(C(=O)c3ccccn3)s2)C[C@H](C)O1"
  melting point: "188 to 191 °C"
- mol: "O=C(Nc1nc(-c2ccco2)c(C(=O)c2ccc(N3CCC(O)CC3)nc2)s1)c1ccncc1"
  melting point: "264 to 268 °C"
- mol: "O=C(CN1CCC(N2CCCC2)CC1)Nc1nc(-c2ccco2)c(C(=O)C2CCOCC2)s1"
  melting point: "183 to 184 °C"
- mol: "O=C(Nc1nc(-c2ccco2)c(C(=O)C2CCOCC2)s1)c1cccc2c1OC(F)(F)O2"
  melting point: "206 to 207 °C"
- mol: "Cc1cc(C(=O)Nc2nc(-c3ccco3)c(C(=O)c3ccccn3)s2)c(C)o1"
  melting point: "195 to 198 °C"

Returns the measured melting point for the input molecule. Input: O=C(Nc1nc(-c2ccco2)c(C(=O)C2CCOCC2)s1)c1cc(F)cc(F)c1
259 to 265 °C

For CN1CCN(CC(=O)Nc2nc(-c3ccco3)c(C(=O)C3CCOCC3)s2)CC1 then?
106 to 112 °C

For Cn1ccc(-c2sc(NC(=O)c3ccncc3)nc2-c2ccco2)cc1=O then?
280 to 282 °C

* * *

Recorded melting point by entry

Recorded results for 5 compounds are shown here.
- mol: "COc1ccc(C(=O)c2sc(NC(=O)c3ccncc3)nc2-c2ccco2)cn1"
  melting point: "246 to 257 °C (dec.)"
- mol: "O=C1CCC(C(=O)c2sc(NC(=O)c3ccco3)nc2-c2ccco2)CC1"
  melting point: "232 to 235 °C"
- mol: "O=C(Nc1nc(-c2ccco2)c(C(=O)c2ccccn2)s1)c1ccnc(N2CCOCC2)c1"
  melting point: "216 to 217 °C"
- mol: "O=C(c1ccccn1)c1sc(NC(=O)C2CCOCC2)nc1-c1ccco1"
  melting point: "234 to 235 °C"
- mol: "O=C(Nc1nc(-c2ccco2)c(C(=O)C2CCOCC2)s1)c1ccc2c(c1)OCO2"
  melting point: "194 to 196 °C"

Returns the measured melting point for the input compound. Input: CN(C)CC(=O)Nc1nc(-c2ccco2)c(C(=O)C2CCOCC2)s1
129 to 130 °C

For O=C(Nc1nc(-c2ccco2)c(C(=O)c2cccnc2)s1)c1ccco1 then?
234 to 236 °C

For O=C(Nc1nc(-c2ccco2)c(C(=O)C2CC2)s1)c1ccncc1 then?
225 to 230 °C (dec.)

* * *

Recorded melting point by entry

Recorded results for 7 molecules are shown here.
- molecule: "O=C(Nc1nc(-c2ccco2)c(C(=O)C2CCOCC2)s1)c1ccc(CN2CCOCC2)cc1 [Compound 387]"
  melting point: "92 to 96 °C"
- molecule: "O=C(Nc1nc(-c2ccco2)c(C(=O)c2ccccn2)s1)c1cncc(Br)c1 [Compound 134]"
  melting point: "259 to 262 °C"
- molecule: "CN(C)c1ccc(C(=O)Nc2nc(-c3ccco3)c(C(=O)C3CCOCC3)s2)cc1 [Compound 370]"
  melting point: "238 to 240 °C"
- molecule: "Cc1ncccc1C(=O)Nc1nc(-c2ccco2)c(C(=O)c2ccccn2)s1 [Compound 129]"
  melting point: "186 to 187 °C"
- molecule: "O=C(Nc1nc(-c2ccco2)c(C(=O)c2ccccn2)s1)c1ccncc1Cl [Compound 123]"
  melting point: "206 to 207 °C"
- molecule: "O=C(Nc1nc(-c2ccco2)c(C(=O)C2CCOCC2)s1)c1ccc(OC(F)(F)F)cc1 [Compound 382]"
  melting point: "177 to 180 °C"
- molecule: "O=C(Nc1nc(-c2ccco2)c(C(=O)c2ccccn2)s1)c1ccco1 [Compound 142]"
  melting point: "184 to 185 °C"

API: the following record is the query input.
Returns the measured melting point for the input molecule. Input: COCC(=O)c1sc(NC(=O)c2ccc(Cl)nc2)nc1-c1ccco1 [Compound 310]
174 to 183 °C

* * *

attributeMeasured: melting point

- molecule: "O=C(Nc1nc(-c2ccco2)c(C(=O)c2ccnc(N3CCOCC3)c2)s1)c1ccncc1 [Compound 246]"
  attributeMeasured: "melting point"
  val: "270 to 273 °C"
- molecule: "N#Cc1ccc(C(=O)Nc2nc(-c3ccco3)c(C(=O)C3CCOCC3)s2)cc1 [Compound 379]"
  attributeMeasured: "melting point"
  val: "231 to 234 °C"
- molecule: "CC(C)NC(=O)Nc1nc(-c2ccco2)c(C(=O)c2ccccn2)s1 [Compound 166]"
  attributeMeasured: "melting point"
  val: "182 to 186 °C"
- molecule: "CCCC(=O)Nc1nc(-c2ccco2)c(C(=O)c2ccccn2)s1 [Compound 97]"
  attributeMeasured: "melting point"
  val: "148 to 149 °C"

Returns the measured melting point for the input molecule. Input: CCn1cc(C(=O)Nc2nc(-c3ccco3)c(C(=O)c3ccccc3)s2)ccc1=O [Compound 59]
109 to 114 °C

* * *

Recorded melting point by entry

Recorded results for 3 compounds are shown here.
- mol: "O=C(Nc1nc(-c2ccco2)c(C(=O)c2ccccn2)s1)c1ccc2snnc2c1"
  melting point: "213 to 218 °C"
- mol: "COc1ccc(C(=O)Nc2nc(-c3ccco3)c(C(=O)C3CCOCC3)s2)cc1OC"
  melting point: "289 to 292 °C"
- mol: "Cc1ccc(C(=O)c2sc(NC(=O)c3ccncc3)nc2-c2ccco2)cn1"
  melting point: "230 to 232 °C (dec.)"

API: the following record is the query input.
Returns the measured melting point for the input compound. Input: O=C(CN1CCSC1)Nc1nc(-c2ccco2)c(C(=O)c2ccccn2)s1
153 to 155 °C

* * *

Recorded melting point by entry

Recorded results for 5 compounds are shown here.
- compound: "O=C(CCc1ccccc1)Nc1nc(-c2ccco2)c(C(=O)C2CCOCC2)s1"
  val: "161 to 164 °C"
- compound: "O=C(Nc1nc(-c2ccco2)c(C(=O)c2ccn(Cc3ccccc3)c(=O)c2)s1)c1ccncc1"
  val: "288 to 291 °C"
- compound: "N#Cc1cccc(C(=O)Nc2nc(-c3ccco3)c(C(=O)C3CCOCC3)s2)c1"
  val: "257 to 260 °C"
- compound: "COc1ccc(C(=O)Nc2nc(-c3ccco3)c(C(=O)C3CCOCC3)s2)cc1"
  val: "184 to 188 °C"
- compound: "CC(C)(O)C(=O)Nc1nc(-c2ccco2)c(C(=O)c2ccccc2)s1"
  val: "153 to 154 °C"

Returns the measured melting point for the input compound. Input: O=C(Nc1nc(-c2ccco2)c(C(=O)C2CCOCC2)s1)c1ccccc1Cl
160 to 162 °C

For CC(O)c1cc2cc(C(=O)Nc3nc(-c4ccco4)c(C(=O)c4ccccn4)s3)ccc2o1 (stereo not shown) then?
246 to 249 °C

For CCn1cc(C(=O)Nc2nc(-c3ccco3)c(C(=O)C3CCOCC3)s2)cn1 then?
170 to 174 °C

For CCn1cc(C(=O)c2sc(NC(=O)c3ccncc3)nc2-c2ccco2)ccc1=O then?
295 to 296 °C

For Cn1ccc(C(=O)Nc2nc(-c3ccco3)c(C(=O)c3ccccn3)s2)cc1=O then?
280 to 285 °C

For O=C(Nc1nc(-c2ccco2)c(C(=O)C2CCOCC2)s1)c1cc(F)ccc1F then?
172 to 174 °C

For CC(C)(C)C(=O)c1sc(NC(=O)C2CC2)nc1-c1ccco1 then?
133 to 134 °C

For Cc1cncc(C(=O)Nc2nc(-c3ccco3)c(C(=O)C3CCOCC3)s2)c1 then?
239 to 243 °C

* * *

Recorded melting point by entry

Recorded results for 5 compounds are shown here.
- mol: "CCOCC(=O)Nc1nc(-c2ccco2)c(C(=O)C2CCOCC2)s1"
  melting point: "121 to 126 °C"
- mol: "O=C(CN1CCC(N2CCOCC2)CC1)Nc1nc(-c2ccco2)c(C(=O)C2CCOCC2)s1"
  melting point: "193 to 195 °C"
- mol: "O=C(Nc1nc(-c2ccco2)c(C(=O)c2ccccc2)s1)c1ccc(=O)n(Cc2ccncc2)c1"
  melting point: "270 to 275 °C"
- mol: "O=C(Nc1nc(-c2ccco2)c(C(=O)C2CCOCC2)s1)c1cccs1"
  melting point: "231 to 232 °C"
- mol: "Cc1cccc(C(=O)c2sc(NC(=O)c3ccncc3)nc2-c2ccco2)n1"
  melting point: "238 to 241 °C"

Returns the measured melting point for the input compound. Input: Cc1ccc(C(=O)Nc2nc(-c3ccco3)c(C(=O)C3CCOCC3)s2)cc1
190 to 192 °C

For COC1CCN(CC(=O)Nc2nc(-c3ccco3)c(C(=O)C3CCOCC3)s2)CC1 then?
109 to 111 °C

For O=C(Nc1nc(-c2ccco2)c(C(=O)c2ccncn2)s1)c1ccncc1 then?
> 300 °C

For O=C(CN1CCN(c2ccccc2)CC1)Nc1nc(-c2ccco2)c(C(=O)c2ccccn2)s1 then?
203 to 204 °C

For CC(C)(C)C(=O)Nc1nc(-c2ccco2)c(C(=O)c2ccccn2)s1 then?
186 to 187 °C

For Cc1ccc(C(=O)c2sc(NC(=O)c3ccc(C#N)cc3)nc2-c2ccco2)cn1 then?
261 to 265 °C

For O=C(CN1CCC(O)CC1)Nc1nc(-c2ccco2)c(C(=O)C2CCOCC2)s1 then?
178 to 180 °C

For Cc1ncccc1C(=O)c1sc(NC(=O)c2ccncc2)nc1-c1ccco1 then?
230 to 234 °C
